Target: T1, Tumor Necrosis Factor-alpha (UniProt P01375 77-233)
T1 construct: Immobilised on pipette tips or SPR chips (amine coupling or biotin capture); also called TNF-α; TNF-alpha
T1 sequence (P01375 77-233 limits assumed): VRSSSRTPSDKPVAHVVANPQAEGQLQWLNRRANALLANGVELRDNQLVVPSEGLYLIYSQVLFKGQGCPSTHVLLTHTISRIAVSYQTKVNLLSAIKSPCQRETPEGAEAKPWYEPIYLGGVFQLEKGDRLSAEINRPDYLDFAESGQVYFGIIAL
Test: SPR; difference to the TNF1 lead peptide
PROPERTY: Component Binding ΔG Contribution (kcal/mol)
Numeric only. Scale: kcal/mol

Reference set, count: 2
[[record]]
binder = "FERYPLMMPWSFLQSRQGSC [TNF1 D4Y point-mutant]"
quantitative_result = -0.74

[[record]]
binder = "FERDPLMMPWKFLQSRQGSC [TNF1 S11K point-mutant]"
quantitative_result = -0.82


I am curious: what Component Binding ΔG Contribution value has been reported for FERDYLMMPWSFLQSRQGSC [TNF1 P5Y point-mutant] ? -0.58

I am curious: what Component Binding ΔG Contribution value has been reported for FERDPLKMPWSFLQSRQGSC [TNF1 M7K point-mutant] ? -0.72
